test system: DU-145; assay: Growth inhibition of human DU145 cells after 48 hrs by sulforhodamine B assay; type: functional, cell-based; settings: Homo sapiens, DU-145, 48 h; read-out: IC50
parameter measured: IC50 (µM)
Give just the numeric value; µM need not be written.

(Q) Give its IC50 value. Item: CC(=O)Nc1cccc(-c2ccc(-c3ccnc(NC(=O)Nc4cc(C(F)(F)F)cc(C(F)(F)F)c4)n3)cn2)c1.Cl
(A) 6.57

* * *

As shown below, each of these compounds has a reported growth at 10 µM value.
tested on: KM12; assay: Cytotoxicity against human KM12 cells assessed as cell growth at 10 uM; type: functional; conditions: Homo sapiens, KM12; read-out: Activity
The reply should contain only the number, in %.

Solved entries (count: 3):
CC(=O)c1ccccc1-c1ccc(-c2ccnc(NC(=O)Nc3cc(N4CCOCC4)cc(C(F)(F)F)c3)n2)cn1; 90.4
CC(=O)c1ccc(-c2ccc(-c3ccnc(Nc4cc(C(F)(F)F)cc(C(F)(F)F)c4)n3)cn2)cc1; 114
CC(=O)Nc1cccc(-c2ccc(-c3ccnc(NC(=O)Nc4cc(C(F)(F)F)cc(C(F)(F)F)c4)n3)cn2)c1.Cl; 72.7

(Q) Requested read-out growth at 10 µM, target or system KM12, entry CC(=O)c1ccccc1-c1ccc(-c2ccnc(NC(=O)Nc3cc(C(F)(F)F)cc(C(F)(F)F)c3)n2)cn1
(A) 93.8

(Q) Thanks! And O=C(Nc1cc(C(F)(F)F)cc(C(F)(F)F)c1)Nc1nccc(-c2ccc(Nc3ccccc3)nc2)n1 ?
(A) 117

* * *

system: T47D; test: Cytotoxicity against human T47D cells assessed as cell growth at 10 uM; type: functional; details: Homo sapiens, T47D; read-out: Activity
parameter measured: growth at 10 µM (%)
The figure you give is taken to be in %; do not add the unit.

// worked examples, growth at 10 µM included
CC(=O)c1ccc(-c2ccc(-c3ccnc(Nc4cc(C(F)(F)F)cc(C(F)(F)F)c4)n3)cn2)cc1; 91.6
FC(F)(F)c1cc(Nc2nccc(-c3ccc(Nc4ccccc4)nc3)n2)cc(C(F)(F)F)c1; 84.5
Cc1ccc(Nc2nc(C)cc(-c3cccnc3)n2)c(C)c1; 87.1
Cc1cc(-c2cccnc2)nc(NC(=O)c2cccc(C(F)(F)F)c2)n1; 95.5
c1ccc(-c2ccc(-c3ccnc(Nc4ccc(N(c5ccccc5)c5ccccc5)cc4)n3)cn2)cc1; 111

(Q) Which growth at 10 µM value belongs to CC(=O)c1ccccc1-c1ccc(-c2ccnc(NC(=O)Nc3cc(N4CCOCC4)cc(C(F)(F)F)c3)n2)cn1 ?
(A) 79.8

(Q) Another compound to check: CC(=O)Nc1cccc(-c2ccc(-c3ccnc(NC(=O)Nc4cc(C(F)(F)F)cc(C(F)(F)F)c4)n3)cn2)c1.Cl
(A) -11.3

(Q) Now try FC(F)(F)c1cc(Nc2nccc(-c3ccc(-c4ccccc4)nc3)n2)cc(C(F)(F)F)c1 .
(A) 80.1

(Q) What do we get for FC(F)(F)c1cc(Nc2nccc(-c3cccnc3)n2)cc(C(F)(F)F)c1 ?
(A) 83.9

(Q) Here is the next compound: CC(=O)c1ccccc1-c1ccc(-c2ccnc(NC(=O)Nc3cc(C(F)(F)F)cc(C(F)(F)F)c3)n2)cn1.Cl
(A) 85.4

(Q) Try this compound too: O=C(Nc1cc(C(F)(F)F)cc(C(F)(F)F)c1)Nc1nccc(-c2ccc(Nc3ccccc3)nc2)n1
(A) 110
